# ASSAYED_TARGET: UniProt Q12809
# Sequence (Q12809 whole entry): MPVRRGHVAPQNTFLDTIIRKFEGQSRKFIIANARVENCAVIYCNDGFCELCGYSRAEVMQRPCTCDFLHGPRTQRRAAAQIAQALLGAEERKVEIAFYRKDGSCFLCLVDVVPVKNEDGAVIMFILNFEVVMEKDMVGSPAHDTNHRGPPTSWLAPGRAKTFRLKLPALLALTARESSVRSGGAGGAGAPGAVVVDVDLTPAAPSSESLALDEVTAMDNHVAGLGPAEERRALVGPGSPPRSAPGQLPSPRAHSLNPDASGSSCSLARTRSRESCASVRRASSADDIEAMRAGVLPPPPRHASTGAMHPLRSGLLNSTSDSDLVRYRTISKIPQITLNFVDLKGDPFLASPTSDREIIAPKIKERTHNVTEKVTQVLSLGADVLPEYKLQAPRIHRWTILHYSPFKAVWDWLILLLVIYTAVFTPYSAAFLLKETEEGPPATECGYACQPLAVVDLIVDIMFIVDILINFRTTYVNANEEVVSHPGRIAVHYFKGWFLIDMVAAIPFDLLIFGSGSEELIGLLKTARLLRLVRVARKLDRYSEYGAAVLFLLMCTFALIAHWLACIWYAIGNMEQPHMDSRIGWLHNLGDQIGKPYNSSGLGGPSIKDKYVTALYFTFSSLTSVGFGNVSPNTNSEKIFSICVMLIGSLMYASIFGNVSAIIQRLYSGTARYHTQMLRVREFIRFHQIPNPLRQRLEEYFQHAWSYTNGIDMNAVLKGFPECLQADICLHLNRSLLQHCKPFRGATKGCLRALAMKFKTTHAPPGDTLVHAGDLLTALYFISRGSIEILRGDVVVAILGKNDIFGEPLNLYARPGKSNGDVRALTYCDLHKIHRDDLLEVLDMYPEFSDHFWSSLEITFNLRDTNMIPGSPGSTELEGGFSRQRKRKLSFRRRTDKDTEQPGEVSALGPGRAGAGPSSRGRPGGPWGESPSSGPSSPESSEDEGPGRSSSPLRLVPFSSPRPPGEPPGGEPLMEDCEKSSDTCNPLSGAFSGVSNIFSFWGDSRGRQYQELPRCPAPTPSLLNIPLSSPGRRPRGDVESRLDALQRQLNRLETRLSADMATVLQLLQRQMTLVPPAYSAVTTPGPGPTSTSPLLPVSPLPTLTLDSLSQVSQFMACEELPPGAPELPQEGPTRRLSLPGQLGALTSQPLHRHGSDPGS
Below is a list of entries, each paired with its recorded IC50 value.
Value expressed in nM; do not type the unit.

Nc1ncnc2c1c(-c1cccc(OCc3ccccc3)c1)cn2[C@H]1C[C@@H](CN2CCC2)C1 :: 130

Now look at this one.
Report IC50 on UniProt Q12809 for this entry: Nc1ncnc2c1c(-c1cccc(OC[C@@H]3CCCO3)c1)cn2[C@H]1C[C@@H](CN2CCC2)C1
3600

====

# ASSAYED_TARGET: Phosphatidylinositol 4,5-bisphosphate 3-kinase catalytic subunit alpha isoform (Homo sapiens, UniProt P42336)
# Sequence (P42336 whole entry, canonical isoform): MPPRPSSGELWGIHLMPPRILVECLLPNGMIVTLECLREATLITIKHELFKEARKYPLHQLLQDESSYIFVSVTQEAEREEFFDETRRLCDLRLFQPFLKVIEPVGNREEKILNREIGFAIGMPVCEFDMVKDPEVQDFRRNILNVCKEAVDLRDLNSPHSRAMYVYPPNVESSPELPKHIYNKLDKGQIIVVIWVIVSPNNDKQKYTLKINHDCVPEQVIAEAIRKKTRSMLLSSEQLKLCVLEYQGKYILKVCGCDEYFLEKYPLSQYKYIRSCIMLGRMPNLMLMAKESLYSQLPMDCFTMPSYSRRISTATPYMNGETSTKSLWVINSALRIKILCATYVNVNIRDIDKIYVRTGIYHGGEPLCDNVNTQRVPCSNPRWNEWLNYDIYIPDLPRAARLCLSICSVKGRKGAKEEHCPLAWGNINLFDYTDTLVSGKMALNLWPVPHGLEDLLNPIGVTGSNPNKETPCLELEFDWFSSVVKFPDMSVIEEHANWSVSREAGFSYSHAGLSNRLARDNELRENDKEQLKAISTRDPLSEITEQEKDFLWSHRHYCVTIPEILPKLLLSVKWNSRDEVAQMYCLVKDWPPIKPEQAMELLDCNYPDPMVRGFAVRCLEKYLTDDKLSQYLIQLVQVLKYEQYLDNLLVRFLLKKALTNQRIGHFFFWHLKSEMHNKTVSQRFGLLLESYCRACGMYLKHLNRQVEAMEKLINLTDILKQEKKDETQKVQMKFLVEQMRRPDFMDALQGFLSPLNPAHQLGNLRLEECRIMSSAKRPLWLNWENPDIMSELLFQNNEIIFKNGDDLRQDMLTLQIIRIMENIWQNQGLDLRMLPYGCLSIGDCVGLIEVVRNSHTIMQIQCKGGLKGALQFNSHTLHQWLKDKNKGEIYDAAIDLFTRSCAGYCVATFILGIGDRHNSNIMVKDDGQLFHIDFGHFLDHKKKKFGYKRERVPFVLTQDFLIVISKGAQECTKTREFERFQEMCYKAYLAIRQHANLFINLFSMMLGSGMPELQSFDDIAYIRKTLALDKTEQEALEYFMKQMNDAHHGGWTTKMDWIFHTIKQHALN
# EXPERIMENT_SUMMARY: Inhibition of PI3K-alpha (unknown origin)
MEASURED_METRIC: IC50

Recorded results for 2 compounds are shown here.
Nc1ncnc2c1c(-c1cccc(OCc3ccccc3)c1)cn2[C@H]1C[C@@H](CN2CCC2)C1 :: > 9 µM
CC1(C)CC[C@@H](COc2cccc(-c3cn([C@H]4C[C@@H](CN5CCC5)C4)c4ncnc(N)c34)c2)O1 :: > 9 µM

Provide one value: measured IC50 of Nc1ncnc2c1c(-c1cccc(OC[C@@H]3CCCO3)c1)cn2[C@H]1C[C@@H](CN2CCC2)C1
> 9 µM

Source of measurements: ChEMBL document CHEMBL3784924
